Values were extracted from ChEMBL document CHEMBL1201862.

# Tested on: SNB-75
# measurement description: NCI tumour cell line growth inhibition, 48 h
Active and inactive are the calls of the source. Cut-off read from the data, not from the text of the source: active = GI50 up to about 1.1 µM and inactive = higher.
Choose the fitting class; nothing outside True = active, False = inactive is accepted.

Test call for this molecule, please: Cc1cc2nc3c(C(OC4OC(CO)C(O)C(O)C4O)C(O)CO)nn(-c4ccc(F)cc4)c3nc2cc1C (stereo unspecified)
False

Hello, I am checking results. What call was entered for C=C1COC(O)(C2OCOC(C3CC(=O)NC(=O)C3)C2O)C1C (stereo unspecified) ?
True

Kindly provide the recorded test outcome for the following molecule: O=[N+]([O-])c1ccc2c(c1)nc1n2C(c2c(F)cccc2F)SC1 (stereo unspecified)
False

State the result this test recorded for Nc1ccn(C2CCC(COP(=O)(O)OCC(O)COP(=O)(O)OCC3OC(n4cc(F)c(=O)[nH]c4=O)CC3O)O2)c(=O)n1 (stereo unspecified) .
False

Any idea what this test logged for c1cc(-c2cn[nH]c2)cc(-c2cn[nH]c2)c1 ?
False

Outcome? N#CCCC1(CCC#N)CCc2ccccc2C1=O
False

What was the test verdict on Cc1nc(SCC(=O)Nc2ccccc2)c2sc(=S)n(-c3ccccc3)c2n1 ?
False

Which result was noted for this molecule in the test: FC(F)(F)c1ccc(C2SCc3nc4ccccc4n32)cc1 (stereo unspecified)
False

Lab log entry: O=C1C(Cl)=C(N2CCN(c3ncccn3)CC2)C(=O)c2c(O)ccc(O)c21 — outcome as called in the assay?
False

# outcome recorded in this test, key = O=C1c2ccccc2C(=O)c2c1oc(=O)c1ccccc21
False

Which result was noted for this molecule in the test: CCN(CC)C(=S)N/N=C/c1cc(OC)ccc1O
False

Recorded test call requested for CCOC(=O)/C(=C/c1ccc(Cl)cc1)N(CC)CC
False

What call does the record list for O=C(CCCl)NN=C1NCCCCN1 ?
False

Test call for this molecule, please: CC(C)OC(=O)C(NC(=O)C(CC(=O)OCc1ccccc1)NC(=O)OCc1ccccc1)NC(=O)C1C(C)(C)CCC1(C)C (stereo unspecified)
False

Please let me know the test result on file for CSc1ccc(C(=C=C=C(c2ccc(SC)s2)c2ccc(SC)s2)c2ccc(SC)s2)s1 .
False

Each molecule tested received a call. Report the one for COc1c(-c2ccc3c(c2)OCO3)oc2cc(O)cc(O)c2c1=O .
False

// outcome(item) with item = CCOc1ccc(/N=N/S(=O)(=O)O)cc1
False

Hi team, can someone confirm the assay call for COc1ccc(/C=C\c2cc(OC)c(OC)c(OC)c2)cc1 ?
True

Answer briefly: the call reported for Cc1ccc(S(=O)(=O)Nn2c(O)c(C#N)c(-c3ccc(N(C)C)cc3)c(C#N)c2=O)cc1 in this assay.
False

Dear all, I need the recorded test outcome for CN(c1ccccc1Cl)S(=O)(=O)c1ccc([N+](=O)[O-])cc1 , thank you.
False

What did the test return for CC(=O)OCC1OC(n2nc(Cc3ccccc3)c(=S)[nH]c2=S)C(OC(C)=O)C(OC(C)=O)C1OC(C)=O (stereo unspecified) ?
False

So what was the verdict on Clc1cc2nc(C3CCCCO3)[nH]c2cc1Cl (stereo unspecified) in this test?
False

Test call, this molecule: O=C(O)C1=CN(c2ccncc2)C(c2ccco2)=CC1c1ccccc1[N+](=O)[O-] (stereo unspecified)
False

// return assay outcome for O=C1CC2SC(COCc3ccccc3)(CCN2Cc2ccccc2)C1 (stereo unspecified)
False

State the result this test recorded for CC(=O)OCC1OC(OC2CC3C(C)(C)C(OC(C)=O)CC[C@]3(C)C3CCC45CC4(CC[C@H]5C(C)CC(O)[C@@H](O)C(C)(C)O)[C@]23C)C(O)C(O)C1O (stereo partly specified) .
False

Which outcome was assigned to CC1(C)O[C@H]2OC3CCC(=O)CC3(O)[C@H]2O1 (stereo partly specified) in this test?
False

* * *

# Test system: M14
# measurement description: NCI tumour cell line growth inhibition, 48 h
Active and inactive are the calls of the source. Rule as the data show it: active = GI50 up to about 1.1 µM and inactive = higher.
I'd be grateful if you could share measured GI50 for these entries.

Lab note: Cc1nc(SCC(=O)Nc2ccccc2)c2sc(=S)n(-c3ccccc3)c2n1 gave GI50 of > 10 µM (inactive)

Form: compound = CC(=O)CC(=O)N1CCOC1=O ; GI50 = > 10 µM (inactive)

GET /value?item= CC(C)C(=O)CC(Sc1ccc(N)cc1)c1ccccc1 (stereo unspecified) &field=GI50 returns 30.4 µM (inactive)

O=C1NC(c2ccccc2Cl)Nc2ccccc21 (stereo unspecified) yielded GI50 of 10.5 µM (inactive)

Notebook: c1ccc2c(c1)C(=Nc1ccc(N=C3c4ccccc4-c4ccccc43)cc1)c1ccccc1-2 , GI50 read as > 100 µM (inactive)

According to the records, this compound CC(=O)Oc1ccc(/C=C/C(=O)OCCCOC(=O)/C=C/c2ccc(OC(C)=O)c(OC(C)=O)c2)cc1OC(C)=O displays GI50 of > 100 µM (inactive)

Looking up COc1ccc(-n2cnnc2-c2nsc3ccccc23)cc1 , I found its GI50 recorded as > 100 µM (inactive)

Entry under test: COc1cc(/C=C/c2ccc(OC)c(O)c2)cc(OC)c1 . Its GI50 was 3.08 µM (inactive)

Entry CN1C(=O)c2c(c3c4ccccc4n(C4OC(CO)C(O)C(O)C4O)c3c3[nH]c4ccccc4c23)C1=O (stereo unspecified) — recorded GI50 = 2.34 µM (inactive)

Field GI50 (entry CC#CC(O)(C(=O)OC1CCC2CCC1N2C)C1CCCC1 (stereo unspecified) ) reads > 100 µM (inactive)

In plain terms, COc1ccc(N2C(=O)C(=O)C3(CCCCC3)C2=O)c2ccccc12 has a documented GI50 of > 10 µM (inactive)

GET /value?item= O=C(Cc1ccc([N+](=O)[O-])cc1)OCC#CCOC(=O)Cc1ccc([N+](=O)[O-])cc1 &field=GI50 returns > 10 µM (inactive)

Noted for CC1=C(c2nc3ccccc3s2)C(=O)OC1(C)C : its GI50 reads > 100 µM (inactive)

Kindly note the recorded GI50 for Cc1nn2c(nc1=O)sc1ccc3ccccc3c12 , which is > 100 µM (inactive)

Notebook: COc1cc([C@@H]2c3cc4c(cc3[C@@H](NC(=O)c3ccc([N+](=O)[O-])cc3)C3COC(=O)[C@@H]32)OCO4)cc(OC)c1O (stereo partly specified) , GI50 read as 0.653 µM (active)

Quick note, GI50 for Oc1ccc(Br)cc1/C=N/C1CCCCC1 landed at 34.8 µM (inactive)

Field GI50 (entry CC(C)=NN/C(=N\c1ccc(Cl)cc1)NS(=O)(=O)c1ccc(Oc2cccc(Cl)c2C#N)cc1 ) reads > 100 µM (inactive)

GI50 reading for c1csc(-c2cc(-c3ccsc3)cs2)c1 : > 100 µM (inactive)

// GI50 value for N#Cc1c2ccccc2c(Cc2ccc3c(c2)OCCOCCOCCOCCOCCO3)c2ccccc12 : 5.37 µM (inactive)

The recorded GI50 for CCO/C([O-])=C(\C(=O)c1ccc([N+](=O)[O-])cc1)[n+]1c(C)n(C)c2ccccc21 is > 100 µM (inactive)

Reported GI50 ( CC(=O)OC1OC2C(NC(=O)OC(C)(C)C)C1CC2(OCc1ccccc1)OCc1ccccc1 (stereo unspecified) ) = 20.5 µM (inactive)

Looking up CSc1ccc(C=C2N=C(c3ccccc3)N(c3cc(C(=O)c4ccccc4)ccc3N3C(=O)/C(=C/c4ccc(SC)cc4)N=C3c3ccccc3)C2=O)cc1 , I found its GI50 recorded as 76.9 µM (inactive)

GI50 reported for this compound COc1cc(/C=C2\CC3C4CC=C5C[C@@H](O)CC[C@]5(C)C4CC[C@]3(C)\C2=N\O)cc(OC)c1OC (stereo partly specified) : 10.5 µM (inactive)

Lab book: GI50 of O=C1CCCC1CN1CCCC1 (stereo unspecified) noted as 1.67 µM (inactive)

// GI50 value for CCCCc1ccc(Nc2nc(OC)c3ncn(C4CC(O)C(CO)O4)c3n2)cc1 (stereo unspecified) : 28.9 µM (inactive)

# GI50 (compound: CCc1n[nH]c(=O)n1N1C(=O)C2CC=CCC2C1=O (stereo unspecified) ) is > 100 µM (inactive)

* * *

# Test system: OVCAR-4
# measurement description: NCI tumour cell line growth inhibition, 48 h
The source made the active and inactive calls. No stated cut-off is given here; in the data, active = GI50 up to about 1.1 µM and inactive = higher.
Your answer must be one of the following: label 1 (active), label 0 (inactive)

What did this assay record as the result for COc1ccc(N2C(=O)C3CC(c4ccc(Br)cc4)c4c([nH]c5ccccc45)C3C2=O)cc1 (centres undefined) ?
label 0

What did the test return for COc1cc(C/N=c2/nc(N(C)C)ss2)cc(OC)c1OC ?
label 0

Please share the test call associated with COC(CNC(=O)C(C)NC(=O)CCc1ccccc1)OC (centres undefined) .
label 0

Can you look up the reported call for NC1=NN(c2ccccc2)C(=O)C1/C(=N\NC(=O)c1cc2ccccc2cc1O)C(=O)Nc1ccc(Cl)cc1 (centres undefined) for me?
label 0

// return assay outcome for COC(c1ccc(C(C)(C)C)cc1)(c1ccc(C(C)(C)C)cc1)c1ccc(C(C)(C)C)cc1
label 0

For CC(C)(CN1CCCCC1)C(=O)/C=C/c1ccc(/C=C/C(=O)C(C)(C)CN2CCCCC2)cc1 , which call appears in the assay record?
label 1

Could you please tell me the result logged for Cc1nc2ccccc2c(=O)[nH]1 in this assay?
label 0

Recorded call for NNC(=O)Nc1cccnc1 ?
label 0

GET /call?item= O=[N+]([O-])c1ccc(N2C[N+](c3ccccc3)=NC(c3ccccc3)=N2)cc1 returns the recorded outcome of this test.
label 0

Name the outcome recorded for O=C(c1ccccc1Cl)n1oc2ccccc2c1=O in the assay.
label 0

Recorded test call requested for CCCCc1ccc(Nc2nc(OC)c3ncn(C4CC(O)C(CO)O4)c3n2)cc1 (centres undefined)
label 0

I would be grateful if you could indicate the recorded call for O=C(NCCc1ccccc1)c1c(O)nc2ccccc2c1O .
label 0

Hi, do you know how O=C1NC(c2ccccc2Cl)Nc2ccccc21 (centres undefined) came out in this test?
label 0

What is the recorded call for this molecule in the test? COc1ccc(-c2cc(-c3ccccc3)[nH]c(=S)c2C#N)cc1
label 0
